Below, each entry is listed alongside its reported IC50.
- experimental system: Bcl-2-related protein A1 (Mus musculus, UniProt Q07440)
- Sequence (Q07440 whole entry): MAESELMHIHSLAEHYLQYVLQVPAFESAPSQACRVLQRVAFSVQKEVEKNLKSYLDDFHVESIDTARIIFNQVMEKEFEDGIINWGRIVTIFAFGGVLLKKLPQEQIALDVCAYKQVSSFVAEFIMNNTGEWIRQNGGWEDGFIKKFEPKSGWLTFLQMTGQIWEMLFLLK
- protocol summary: small-molecule antagonists of Bfl-1/BH3 interaction – biochemical, TR-FRET, mouse Bfl-1, confirmation (AID 621)

CN1CCC2=C(C#N)C(=N)C(C#N)(C#N)[C@H](c3cccc(Cl)c3)C2C1 (some centres not stated)	> 100 µM
CN1CCC2=C(C#N)C(=N)C(C#N)(C#N)C(c3cccc(Cl)c3Cl)C2C1 (configuration not stated)	> 100 µM
CCCN1CCC2=C(C#N)C(=N)C(C#N)(C#N)C(c3cccc(OC)c3OC)C2C1 (configuration not stated)	> 100 µM
Cc1ccc(N=C2C(=O)N(c3ccc(C)cc3)C(=O)C2Cl)cc1 (configuration not stated)	2.54 µM
O=C1C(=O)N(c2ncccn2)C(c2cccc(Cl)c2)C1C(=O)c1ccco1 (configuration not stated)	> 100 µM

Would you kindly look at the next entry?
Query: For OCCCc1nc2n(n1)C(c1cccs1)CC(c1ccccc1)=N2 (configuration not stated) , write its IC50.
Result: > 100 µM

meta.source: BindingDB's records for doi:10.7270/Q2K072NW
